Test: Cytotoxicity, cell viability by Resazurin assay
Assay type: cell-based
Settings: human, JEG-3 human placental cells; naive JEG-3 cells, 24-well plates (8×10^4 cells/well), increasing amounts of inhibitor, viability read forty-height (48) hours later; Figure 3A; read-out: 50% cytotoxicity concentration (CC50)
Measured Quantity: CC50 at 48 h (µM)
Only the number, expressed in µM, is required.

IN: Please give the measured CC50 at 48 h for this compound: COc1ccc(CNC(=O)CCl)cc1OC
OUT: 80.2
